Some molecules, each annotated with its measured IC50.
test: Antioxidant activity assessed as DPPH radical scavenging activity incubated for 30 mins by UV absorption spectrometry; format: physicochemical
quantity: IC50 (µg/mL)

| molecule | quantity | units | recordedNumber |
| --- | --- | --- | --- |
| CO[C@]1(O[C@@H](CCC(C)(C)O)[C@](C)(O)[C@H]2CC[C@@]3(O)C4=CC(=O)[C@@H]5C[C@@H](O)[C@@H](O)C[C@]5(C)[C@H]4CC[C@]23C)COC[C@@H](O)[C@@H](O)[C@H]1O | IC50 | µg/mL | 180.26 |
| Cc1c(C)c2c(c(C)c1O)CCC(C)(C(=O)O)O2 (centres undefined) | IC50 | µg/mL | 14.56 |
| CC(C)(O)CC[C@@H](O)[C@](C)(O)[C@H]1CC[C@@]2(O)C3=CC(=O)[C@@H]4C[C@@H](O)[C@@H](O)C[C@]4(C)[C@H]3CC[C@]12C [20-HYDROXYECDYSONE] | IC50 | µg/mL | 155.82 |

----------
Some molecules, each annotated with its measured Activity.
experiment: Antioxidant activity assessed as catalase activity by measuring hydrogen peroxide disappearance per mg protein measured for 1 min at 25 degC; type: physicochemical
quantity: Activity

| molecule | quantity | result |
| --- | --- | --- |
| O=C1O[C@H]([C@@H](O)CO)C(O)=C1O | Activity | 757.575 µmol/min |
| CC(C)(O)CC[C@@H](O)[C@](C)(O)[C@H]1CC[C@@]2(O)C3=CC(=O)[C@@H]4C[C@@H](O)[C@@H](O)C[C@]4(C)[C@H]3CC[C@]12C [20-HYDROXYECDYSONE] | Activity | 112.35 µmol/min |
| CO[C@]1(O[C@@H](CCC(C)(C)O)[C@](C)(O)[C@H]2CC[C@@]3(O)C4=CC(=O)[C@@H]5C[C@@H](O)[C@@H](O)C[C@]5(C)[C@H]4CC[C@]23C)COC[C@@H](O)[C@@H](O)[C@H]1O | Activity | 159.62 µmol/min |

----------
Some compounds, each annotated with its measured IC50.
assay: Antioxidant activity assessed as ferric-reducing antioxidant power after 20 mins at 50 degC by UV spectrophotometry; format: physicochemical

| compound | units | IC50 |
| --- | --- | --- |
| Cc1c(C)c2c(c(C)c1O)CCC(C)(C(=O)O)O2 (centres undefined) | µg/mL | 47.32 |
| CC(C)(O)CC[C@@H](O)[C@](C)(O)[C@H]1CC[C@@]2(O)C3=CC(=O)[C@@H]4C[C@@H](O)[C@@H](O)C[C@]4(C)[C@H]3CC[C@]12C [20-HYDROXYECDYSONE] | µg/mL | 262.45 |
| CO[C@]1(O[C@@H](CCC(C)(C)O)[C@](C)(O)[C@H]2CC[C@@]3(O)C4=CC(=O)[C@@H]5C[C@@H](O)[C@@H](O)C[C@]5(C)[C@H]4CC[C@]23C)COC[C@@H](O)[C@@H](O)[C@H]1O | µg/mL | 288.36 |

----------
experiment: Antioxidant activity assessed as ABTS radical scavenging activity incubated for 6 mins; assay type: physicochemical
Some compounds, each annotated with its measured IC50.
quantity: IC50 (µg/mL)

| compound | recordedNumber |
| --- | --- |
| CO[C@]1(O[C@@H](CCC(C)(C)O)[C@](C)(O)[C@H]2CC[C@@]3(O)C4=CC(=O)[C@@H]5C[C@@H](O)[C@@H](O)C[C@]5(C)[C@H]4CC[C@]23C)COC[C@@H](O)[C@@H](O)[C@H]1O | 111.24 |
| CC(C)(O)CC[C@@H](O)[C@](C)(O)[C@H]1CC[C@@]2(O)C3=CC(=O)[C@@H]4C[C@@H](O)[C@@H](O)C[C@]4(C)[C@H]3CC[C@]12C [20-HYDROXYECDYSONE] | 98.74 |
| Cc1c(C)c2c(c(C)c1O)CCC(C)(C(=O)O)O2 (centres undefined) | 2.02 |

Sourced from ChEMBL document CHEMBL3400147
